B1: tRNA (parent)
chain: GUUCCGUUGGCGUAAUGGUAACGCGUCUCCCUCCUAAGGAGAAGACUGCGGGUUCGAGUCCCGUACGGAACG

# Variants of: B1
# Assay remarks: yeast fitness relative to wild type (ratio to wild type); higher = fitter; tRNA-Arg(CCU), competitive growth, 37 C, YPD
This sample holds only a part of the variants without activity.
yeast fitness for assorted variants
Property: yeast fitness

A69U A70U = 1.03
C24U A45G = 1.03
G10C C34G = 0.501
C5A U8G A37U G51A G52C U59C = 0.639
G9A U32C C33G A37G G52A C55U A65U = 0.583
C31A C60A A65U = 0.619
G10A C24G C27U = 0.547
A15G C46A = 0.884
